target: glucosylceramide synthase (Homo sapiens (Human))
Sequence (Q16739 whole entry): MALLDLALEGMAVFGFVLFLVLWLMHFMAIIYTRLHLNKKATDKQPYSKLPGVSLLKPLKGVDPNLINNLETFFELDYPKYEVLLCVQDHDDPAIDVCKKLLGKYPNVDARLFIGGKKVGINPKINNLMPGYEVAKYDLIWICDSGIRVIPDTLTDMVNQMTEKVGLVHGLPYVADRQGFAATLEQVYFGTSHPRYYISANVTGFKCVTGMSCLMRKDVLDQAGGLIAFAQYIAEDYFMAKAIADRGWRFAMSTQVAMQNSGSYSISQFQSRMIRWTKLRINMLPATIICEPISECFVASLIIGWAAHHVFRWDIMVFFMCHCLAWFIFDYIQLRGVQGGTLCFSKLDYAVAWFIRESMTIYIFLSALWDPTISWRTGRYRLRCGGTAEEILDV
For each of the molecules below, state its pIC50.
Would you please state pIC50, meaning minus log10 of the concentration in mol/L, as a bare number?

Summary for this molecule, O=C(NC1(c2ccc(-c3ccccc3)cc2)CC1)OC1CN2CCC1CC2 (stereo not drawn) : pIC50 is 5.55

For record CC(C)(NC(=O)OC1CN2CCC1CC2)c1ccc(-c2ccc(CCO)cc2)cc1 (stereo not drawn) the listed pIC50 is 3.83

Quick note, pIC50 for CC(C)(NC(=O)OC1CN2CCC1CC2)c1ccc(-c2ccc(OCCCC#N)cc2)cc1 (stereo not drawn) landed at 5.02

The reported value for `COCCOc1cccc(-c2ccc(C(C)(C)NC(=O)O[C@@H]3CN4CCC3CC4)cc2)c1` in terms of pIC50 is 4.98

Reported pIC50 for `CC(C)(NC(=O)O[C@@H]1CN2CCC1CC2)c1ccc(-c2ccccc2)cc1` was 5.92

The molecule identified as COCCOc1ccc(-c2cccc(C(C)(C)NC(=O)OC3CN4CCC3CC4)c2)cc1 (stereo not drawn) registered its pIC50 at 4.57

The measurements presented in this section are drawn from patent US12083115B2.
